assay: Log P value at the pH of 6.5; assay type: physicochemical; settings: octanol/water, pH 6.5; read-out: LogD6.5
assay_readout: logD

CCN1C[C@@H]([C@H](O)[C@H](CC2CCCCC2)NC(=O)[C@H](Cc2cnc[nH]2)NC(=O)[C@@H](CC(=O)N(C)CCOC)Cc2ccccc2)OC1=O; 2.29
CCN1C[C@@H]([C@H](O)[C@H](CC2CCCCC2)NC(=O)[C@H](Cc2cnc[nH]2)NC(=O)[C@@H](CC(=O)N2CCOCC2)Cc2ccccc2)OC1=O; 1.9

P: CCN1C[C@@H]([C@H](O)[C@H](CC2CCCCC2)NC(=O)[C@H](Cc2c[nH]cn2)NC(=O)[C@H](Cc2ccc(OC)cc2)NC(=O)C(C)C)OC1=O
Q: CCN1C[C@@H]([C@H](O)[C@H](CC2CCCCC2)NC(=O)[C@H](Cc2c[nH]cn2)NC(=O)[C@H](Cc2ccc(OC)cc2)NC(=O)N(C)CCOCOCCOC)OC1=O
R: CCN1C[C@@H]([C@H](O)[C@H](CC2CCCCC2)NC(=O)[C@H](Cc2cnc[nH]2)NC(=O)[C@H](Cc2ccc(OC)cc2)NC(=O)N(C)CC(O)CO)OC1=O (some centres not stated)
Sequence the entries by logD, beginning with the highest number. Give me the labels in the order the question wants.
P, Q, R
(P: 2.67, Q: 1.83, R: 1.2)
